Recorded values, source paper PMC8226862.

>  <compound>
COc1ccc(NC(=O)N(Cc2ccc(OCc3nccc(OCC(F)(F)F)c3C)c(OC)c2)C2CCN(C)CC2)cc1

>  <melting point>
179.1 to 180.8 °C

$$$$
>  <compound>
COc1ccc(NC(=O)NCc2ccc(OCc3nccc(OCC(F)(F)F)c3C)c(OC)c2)cc1

>  <melting point>
179.5 to 180.3 °C

$$$$
>  <compound>
COc1cc(CNC(=O)Nc2ccc(F)c(Cl)c2)ccc1OCc1nccc(OCC(F)(F)F)c1C

>  <melting point>
167.8 to 169.1 °C

$$$$
>  <compound>
COc1cc(CN(C(=O)Nc2ccc(F)c(Cl)c2)C2CCN(C)CC2)ccc1OCc1nccc(OCC(F)(F)F)c1C

>  <melting point>
176.2 to 177.7 °C

$$$$
>  <compound>
COc1cc(CNC(=O)Nc2ccc(OC(F)(F)F)cc2)ccc1OCc1nccc(OCC(F)(F)F)c1C

>  <melting point>
158.8 to 159.3 °C

$$$$
>  <compound>
COc1cc(CNC(=O)NCc2ccc(N(C)C)cc2)ccc1OCc1nccc(OCC(F)(F)F)c1C

>  <melting point>
159.4 to 161.4 °C

$$$$
>  <compound>
COc1cc(CN(C(=O)Nc2cccc(C(F)(F)F)c2)C2CCN(C)CC2)ccc1OCc1nccc(OCC(F)(F)F)c1C

>  <melting point>
160.4 to 162.2 °C

$$$$
>  <compound>
CCOc1ccc(CNC(=O)NCc2ccc(OCc3nccc(OCC(F)(F)F)c3C)c(OC)c2)cc1

>  <melting point>
148.9 to 149.9 °C

$$$$

---

endpoint-name: melting point

>  <compound>
COc1cc(CNC(=O)Nc2ccc(C(F)(F)F)cc2)ccc1OCc1nccc(OCC(F)(F)F)c1C [8c]

>  <endpoint-name>
melting point

>  <result>
169.9 to 171 °C

$$$$
>  <compound>
COc1cc(CN(C(=O)Nc2ccc(OC(F)(F)F)cc2)C2CCN(C)CC2)ccc1OCc1nccc(OCC(F)(F)F)c1C [9a]

>  <endpoint-name>
melting point

>  <result>
127.3 to 129.4 °C

$$$$
>  <compound>
COc1cc(CN(C(=O)Nc2cccc([N+](=O)[O-])c2)C2CCN(C)CC2)ccc1OCc1nccc(OCC(F)(F)F)c1C [9f]

>  <endpoint-name>
melting point

>  <result>
157.5 to 159.1 °C

$$$$
>  <compound>
CCOc1ccc(CNC(=O)N(Cc2ccc(OCc3nccc(OCC(F)(F)F)c3C)c(OC)c2)C2CCN(C)CC2)cc1 [9g]

>  <endpoint-name>
melting point

>  <result>
119 to 121.2 °C

$$$$
>  <compound>
COc1cc(CN(C(=O)Nc2ccc(C(F)(F)F)cc2)C2CCN(C)CC2)ccc1OCc1nccc(OCC(F)(F)F)c1C [9b]

>  <endpoint-name>
melting point

>  <result>
138.4 to 140.5 °C

$$$$
>  <compound>
COc1cc(CNC(=O)Nc2cccc(C(F)(F)F)c2)ccc1OCc1nccc(OCC(F)(F)F)c1C [8d]

>  <endpoint-name>
melting point

>  <result>
153.2 to 154.2 °C

$$$$
>  <compound>
COc1cc(CNC(=O)Nc2cccc([N+](=O)[O-])c2)ccc1OCc1nccc(OCC(F)(F)F)c1C [8f]

>  <endpoint-name>
melting point

>  <result>
168.9 to 170.5 °C

$$$$
>  <compound>
COc1ccc(CNC(=O)NCc2ccc(OCc3nccc(OCC(F)(F)F)c3C)c(OC)c2)cc1 [8g]

>  <endpoint-name>
melting point

>  <result>
153 to 154.2 °C

$$$$

---

System: HCT116 (colon cancer cell line)
Test: MTT antiproliferative assay, HCT116
Format: cell-based, human
Details: 96 h incubation
pIC50: −log10 of the molar value.

>  <compound>
COc1cc(CN(C(=O)Nc2cccc(C(F)(F)F)c2)C2CCN(C)CC2)ccc1OCc1nccc(OCC(F)(F)F)c1C

>  <pIC50>
5.59

$$$$
>  <compound>
COc1cc(CN(C(=O)Nc2ccc(C(F)(F)F)cc2)C2CCN(C)CC2)ccc1OCc1nccc(OCC(F)(F)F)c1C

>  <pIC50>
5.54

$$$$
>  <compound>
CCOc1ccc(CNC(=O)N(Cc2ccc(OCc3nccc(OCC(F)(F)F)c3C)c(OC)c2)C2CCN(C)CC2)cc1

>  <pIC50>
5.53

$$$$

---

// values below are reported pIC50
Tested on: PC-3 (prostate cancer cell line)
Assay: MTT antiproliferative assay, PC3
Assay type: cell-based, human
Details: 96 h incubation
pIC50: −log10 of the molar value.
endpoint-name: pIC50

>  <compound>
COc1cc(CN(C(=O)Nc2cccc(C(F)(F)F)c2)C2CCN(C)CC2)ccc1OCc1nccc(OCC(F)(F)F)c1C [9d]

>  <number>
5.44

$$$$
>  <compound>
COc1cc(CN(C(=O)Nc2ccc(F)c(Cl)c2)C2CCN(C)CC2)ccc1OCc1nccc(OCC(F)(F)F)c1C [9e]

>  <number>
5.34

$$$$
>  <compound>
COc1cc(CN(C(=O)Nc2ccc(C(F)(F)F)cc2)C2CCN(C)CC2)ccc1OCc1nccc(OCC(F)(F)F)c1C [9b]

>  <number>
5.47

$$$$
>  <compound>
COc1cc(CN(C(=O)Nc2ccc(OC(F)(F)F)cc2)C2CCN(C)CC2)ccc1OCc1nccc(OCC(F)(F)F)c1C [9a]

>  <number>
5.39

$$$$

---

System: HCT116 (colon cancer cell line)
Test: MTT antiproliferative assay, HCT116
Format: cell-based, human
Conditions: Homo sapiens, HCT-116, 96 h, 96 h incubation
I'd appreciate it if you marked entries met when IC50 is lower than 7 µM and not met when it is not.

>  <compound>
COc1cc(CNC(=O)Nc2ccc(OC(F)(F)F)cc2)ccc1OCc1nccc(OCC(F)(F)F)c1C

>  <discrete-label>
not met

$$$$
>  <compound>
COc1cc(CNC(=O)Nc2cccc([N+](=O)[O-])c2)ccc1OCc1nccc(OCC(F)(F)F)c1C

>  <discrete-label>
not met

$$$$
>  <compound>
CNC(=O)c1cc(Oc2ccc(NC(=O)Nc3ccc(Cl)c(C(F)(F)F)c3)cc2)ccn1 [sorafenib, reference compound]

>  <discrete-label>
met

$$$$
>  <compound>
COc1cc(CN(C(=O)Nc2ccc(F)c(Cl)c2)C2CCN(C)CC2)ccc1OCc1nccc(OCC(F)(F)F)c1C

>  <discrete-label>
met

$$$$
>  <compound>
COc1ccc(NC(=O)NCc2ccc(OCc3nccc(OCC(F)(F)F)c3C)c(OC)c2)cc1

>  <discrete-label>
not met

$$$$
>  <compound>
COc1cc(CNC(=O)Nc2ccc(C(F)(F)F)cc2)ccc1OCc1nccc(OCC(F)(F)F)c1C

>  <discrete-label>
not met

$$$$
>  <compound>
COc1cc(CNC(=O)NCc2ccc(N(C)C)cc2)ccc1OCc1nccc(OCC(F)(F)F)c1C

>  <discrete-label>
not met

$$$$
>  <compound>
COc1cc(CN(C(=O)Nc2cccc(C(F)(F)F)c2)C2CCN(C)CC2)ccc1OCc1nccc(OCC(F)(F)F)c1C

>  <discrete-label>
met

$$$$
>  <compound>
COc1cc(CN(C(=O)Nc2cccc([N+](=O)[O-])c2)C2CCN(C)CC2)ccc1OCc1nccc(OCC(F)(F)F)c1C

>  <discrete-label>
met

$$$$
>  <compound>
CCOc1ccc(CNC(=O)N(Cc2ccc(OCc3nccc(OCC(F)(F)F)c3C)c(OC)c2)C2CCN(C)CC2)cc1

>  <discrete-label>
met

$$$$
>  <compound>
COc1cc(CNC(=O)Nc2ccc(F)c(Cl)c2)ccc1OCc1nccc(OCC(F)(F)F)c1C

>  <discrete-label>
not met

$$$$
>  <compound>
CCOc1ccc(CNC(=O)NCc2ccc(OCc3nccc(OCC(F)(F)F)c3C)c(OC)c2)cc1

>  <discrete-label>
not met

$$$$
>  <compound>
COc1cc(CN(C(=O)Nc2ccc(OC(F)(F)F)cc2)C2CCN(C)CC2)ccc1OCc1nccc(OCC(F)(F)F)c1C

>  <discrete-label>
met

$$$$
>  <compound>
COc1cc(CNC(=O)Nc2cccc(C(F)(F)F)c2)ccc1OCc1nccc(OCC(F)(F)F)c1C

>  <discrete-label>
not met

$$$$
>  <compound>
COc1ccc(CNC(=O)NCc2ccc(OCc3nccc(OCC(F)(F)F)c3C)c(OC)c2)cc1

>  <discrete-label>
not met

$$$$
>  <compound>
COc1cc(CN(C(=O)Nc2ccc(C(F)(F)F)cc2)C2CCN(C)CC2)ccc1OCc1nccc(OCC(F)(F)F)c1C

>  <discrete-label>
met

$$$$
>  <compound>
COc1ccc(NC(=O)N(Cc2ccc(OCc3nccc(OCC(F)(F)F)c3C)c(OC)c2)C2CCN(C)CC2)cc1

>  <discrete-label>
not met

$$$$
